Tested on: HL-60(TB) leukemia
PROTOCOL DETAILS: NCI tumour cell line growth inhibition, 48 h
Entries and their measured TGI follow.

Before answering, review these 3 worked examples.
COMPOUND: CCOP(=O)(OCC)C(C)(C)OC(=O)NC#N
MEASURED ON: HL-60(TB) leukemia
OBSERVATION TYPE: TGI
VALUE: > 100 µM
//
COMPOUND: C/C=C1\CC(C(=O)OCC)CCCCCCCCCCC1=O (stereo unspecified)
MEASURED ON: HL-60(TB) leukemia
OBSERVATION TYPE: TGI
VALUE: > 100 µM
//
COMPOUND: CCCC1(N)CC(OC)OC(C)C1O (stereo unspecified)
MEASURED ON: HL-60(TB) leukemia
OBSERVATION TYPE: TGI
VALUE: > 100 µM

Prompt: What value of TGI has been reported for the following compound? CN1B(c2ccccc2)N(C)C(=O)N(C)C1=O
Completion: > 100 µM

Prompt: What value of TGI has been reported for the following compound? OCC(O)C(O)C(O)C(O)/C=N/Nc1nc(O)c(/C=C2\C=Nc3ccccc32)[nH]1 (stereo unspecified)
Completion: > 100 µM

Prompt: What value of TGI has been reported for the following compound? COc1ccc2[nH]c(O)c(/C=c3/cc4c(c(-c5ccc(F)cc5)n3)=Nc3ccccc3-4)c2c1
Completion: > 100 µM

Prompt: What value of TGI has been reported for the following compound? COc1cccc(C2=C(c3cn(C)c4cccc(OC)c34)C(=O)NC2=O)c1
Completion: > 25 µM

====

Entries and their measured TGI follow.
Tested on: A498 renal
PROTOCOL DETAILS: NCI tumour cell line growth inhibition, 48 h

Prompt: What value of TGI has been reported for the following compound? N#Cc1c2c(c(-c3cccs3)n(C3OC(CO)C(O)C(O)C3O)c1=S)CCc1ccccc1-2 (stereo not given)
Completion: > 100 µM

Prompt: What value of TGI has been reported for the following compound? CC1(C)[C@@H](OC(N)=O)C=C[C@]2(C=O)[C@H]3CC[C@]4(C)[C@@H](c5ccc(=O)oc5)[C@@H](Cl)C[C@]4(O)C3=CC[C@@H]12
Completion: 0.0177 µM

Prompt: What value of TGI has been reported for the following compound? c1ccc(C2[C@@H]3CCCc4ccccc4C3=NN2c2ccccc2)cc1 (stereo not given in full)
Completion: > 100 µM

Prompt: What value of TGI has been reported for the following compound? NC(N)=NCC(N)C(=O)O (stereo not given)
Completion: > 100 µM

Prompt: What value of TGI has been reported for the following compound? CC1(C)c2ccccc2C(O)C12CCC(=O)CC2 (stereo not given)
Completion: > 100 µM

Prompt: What value of TGI has been reported for the following compound? NCP(=O)(O)OCC(=O)O
Completion: > 100 µM

Prompt: What value of TGI has been reported for the following compound? N=C(N)SCCc1ccccn1
Completion: > 100 µM

Prompt: What value of TGI has been reported for the following compound? CC(C)(C)OC(=O)N1N=NC2C3OC(CC3=O)C21 (stereo not given)
Completion: > 100 µM

Prompt: What value of TGI has been reported for the following compound? Cc1cccc(NC2=NCCO2)c1Cl
Completion: > 100 µM

Prompt: What value of TGI has been reported for the following compound? CC1CN=C(c2ccc(COc3ccc(C4=NCC(C)N4)cc3)cc2)N1 (stereo not given)
Completion: > 100 µM
